# SYSTEM: F508delCFTR (Homo sapiens, UniProt P13569, DEL508-508)
# Construct: expressed in transfected cells; host or cells: CFBE41o- human lung-derived epithelial cells (CFBE4lo-F508delCFTR-HRP), doxycycline-inducible
# Sequence (P13569 with tags, fused parts or gaps DEL508-508): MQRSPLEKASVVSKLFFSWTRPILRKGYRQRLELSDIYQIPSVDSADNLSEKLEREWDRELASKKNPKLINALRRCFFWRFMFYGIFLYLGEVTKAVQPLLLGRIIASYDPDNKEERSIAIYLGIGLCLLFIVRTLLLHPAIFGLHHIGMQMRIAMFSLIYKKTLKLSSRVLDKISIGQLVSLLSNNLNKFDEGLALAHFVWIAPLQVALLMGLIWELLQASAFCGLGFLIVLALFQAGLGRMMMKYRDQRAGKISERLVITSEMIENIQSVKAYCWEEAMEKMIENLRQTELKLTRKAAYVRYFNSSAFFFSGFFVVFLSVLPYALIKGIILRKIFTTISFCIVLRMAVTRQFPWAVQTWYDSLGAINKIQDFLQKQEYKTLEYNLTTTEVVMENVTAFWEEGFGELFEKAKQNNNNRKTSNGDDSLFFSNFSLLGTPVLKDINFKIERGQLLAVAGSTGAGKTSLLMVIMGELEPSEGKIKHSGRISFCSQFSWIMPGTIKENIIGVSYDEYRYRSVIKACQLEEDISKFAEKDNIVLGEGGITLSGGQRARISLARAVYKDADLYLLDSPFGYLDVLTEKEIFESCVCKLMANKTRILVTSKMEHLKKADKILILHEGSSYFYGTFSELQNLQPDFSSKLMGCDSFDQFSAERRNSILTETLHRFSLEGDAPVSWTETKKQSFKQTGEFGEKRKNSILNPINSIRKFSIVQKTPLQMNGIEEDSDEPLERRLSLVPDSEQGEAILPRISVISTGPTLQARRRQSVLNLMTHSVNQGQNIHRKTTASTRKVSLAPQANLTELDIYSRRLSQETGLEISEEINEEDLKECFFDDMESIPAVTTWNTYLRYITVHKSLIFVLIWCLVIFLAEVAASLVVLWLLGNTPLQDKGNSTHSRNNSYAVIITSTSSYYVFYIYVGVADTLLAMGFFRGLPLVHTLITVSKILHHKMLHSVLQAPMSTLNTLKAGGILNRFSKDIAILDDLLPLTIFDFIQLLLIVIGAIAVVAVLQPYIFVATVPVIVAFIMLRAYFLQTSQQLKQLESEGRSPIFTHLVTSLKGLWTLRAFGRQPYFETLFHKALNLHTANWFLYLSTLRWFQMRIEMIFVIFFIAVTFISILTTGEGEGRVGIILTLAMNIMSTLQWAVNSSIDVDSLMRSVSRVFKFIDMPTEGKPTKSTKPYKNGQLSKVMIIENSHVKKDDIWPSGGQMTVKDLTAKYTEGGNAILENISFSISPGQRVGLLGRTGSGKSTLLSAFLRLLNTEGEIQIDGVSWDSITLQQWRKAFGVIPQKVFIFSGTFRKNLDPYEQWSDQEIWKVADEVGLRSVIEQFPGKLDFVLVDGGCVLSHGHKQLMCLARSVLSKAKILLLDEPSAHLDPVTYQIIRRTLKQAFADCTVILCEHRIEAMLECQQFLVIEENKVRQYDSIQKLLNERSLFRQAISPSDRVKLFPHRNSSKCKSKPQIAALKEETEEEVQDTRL
# EXPERIMENT DESCRIPTION: Cell Surface Expression-Horse Radish Peroxidase (CSE-HRP) Assay;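 as to Maximum % activity (without co-corrector): percent of the 2 µM on-plate positive control corrector response above DMSO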
# Type: cell-based
# PROTOCOL CONDITIONS: test compound without co-corrector; maximum at any tested concentration, normalized to on-plate positive control; read-out: Maximum % activity (without co-corrector)
The following compounds are listed with their measured Emax values.

# example entries with known answers
compound="COc1ccc(C(C)(C)C)cc1CN[C@H]1[C@H](C(C)(C)C)[C@@H](C(=O)O)N(C(=O)C2CCCCC2)[C@H]1c1cccn(C)c1=O (racemic)" result="< 100%"
compound=COc1ccc(C(C)(C)C)nc1CN[C@H]1[C@H](C(C)(C)C)[C@@H](C(=O)O)N(C(=O)C2CCCCC2)[C@H]1c1ccccc1 result="100 to 200%"
compound=COc1ncc(-c2ccc(F)cc2C)cc1CN[C@H]1[C@H](C(C)(C)C)[C@@H](C(=O)O)N(C(=O)C2CCCCC2)[C@H]1c1cccnc1N(C)C result="100 to 200%"
compound="COc1ncc(C2CCC2)cc1CN[C@H]1[C@H](C(C)(C)C)[C@@H](C(=O)O)N(C(=O)C2COc3ccccc3O2)[C@H]1c1ccccc1 (stereo partly drawn)" result="100 to 200%"
compound="COc1ncc(C2CCC2)cc1CN[C@H]1[C@H](C(C)(C)C)[C@@H](C(=O)O)N(C(=O)C2CCCCC2C(F)(F)F)[C@H]1c1ccccc1 (stereo partly drawn)" result="100 to 200%"

-- ask Field request: Emax | item: COc1ccnc(CN[C@@H]2[C@@H](C(C)(C)C)[C@H](C(=O)O)N(C(=O)C3CCCCC3)[C@@H]2c2ccccc2)n1 (racemic)
-- reply < 100%

-- ask Moving on to the next compound: COc1ccc(C(C)(C)C)cc1CN[C@H]1[C@H](C(C)(C)C)[C@@H](C(=O)O)N(C(=O)C2CC(C)CC(C)C2)[C@H]1c1cccnc1N(C)C (stereo partly drawn)
-- reply 100 to 200%

-- ask Moving on to the next compound: COc1ncc(C(F)(F)F)cc1N[C@H]1[C@H](C(C)(C)C)[C@@H](C(=O)O)N(C(=O)C2CCCC(F)(F)C2)[C@H]1c1cccnc1N(C)C (stereo partly drawn)
-- reply < 100%

-- ask Moving on to the next compound: COc1ccc(S(F)(F)(F)(F)F)cc1CN[C@H]1[C@H](C(C)(C)C)[C@@H](C(=O)O)N(C(=O)OC(C)C)[C@H]1c1ccccc1
-- reply > 200%

-- ask Moving on to the next compound: COc1cc(C(F)(F)F)ccc1CN[C@@H]1[C@@H](C(C)(C)C)[C@H](C(=O)O)N(C(=O)C2CCCCC2)[C@@H]1c1ccccc1 (racemic)
-- reply 100 to 200%

-- ask Moving on to the next compound: COc1cccc(-c2cnc(OC)c(CN[C@H]3[C@H](C(C)(C)C)[C@@H](C(=O)O)N(C(=O)C4CCCCC4)[C@H]3c3ccccc3)c2)c1
-- reply 100 to 200%

-- ask Moving on to the next compound: COc1ccc(Cl)cc1CN[C@@H]1[C@@H](C(C)(C)C)[C@H](C(=O)O)N(C(=O)C2CCCCC2)[C@@H]1c1ccccn1 (racemic)
-- reply < 100%

---

# SYSTEM: F508delCFTR (Homo sapiens, UniProt P13569, DEL508-508)
# Construct: expressed in transfected cells; host or cells: CFBE41o- human lung-derived epithelial cells (CFBE4lo-F508delCFTR-HRP), doxycycline-inducible
# EXPERIMENT DESCRIPTION: Cell Surface Expression-Horse Radish Peroxidase (CSE-HRP) Assay;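 as to Maximum % activity (without co-corrector): percent of the 2 µM on-plate positive control corrector response above DMSO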
# Assay type: cell-based
# PROTOCOL CONDITIONS: CSE-HRP; without co-corrector; maximum at any tested concentration, normalized to on-plate positive control; read-out: Maximum % activity (without co-corrector)
MEASUREMENT LABEL: Emax

# example entries with known answers
molecule="COc1ccc(CN[C@@H]2[C@@H](C(C)(C)C)[C@H](C(=O)O)N(C(=O)C3CCCCC3)[C@@H]2c2ccccc2)c(OC)c1Cl (racemic) [II-3]" system="F508delCFTR (Homo sapiens, UniProt P13569, DEL508-508)" result="< 100%"
molecule="COc1ccc(C(F)(F)F)cc1CN[C@H]1[C@H](C(C)(C)C)[C@@H](C(=O)O)N(C(=O)[C@@H]2CCCO2)[C@H]1c1cccnc1C1CC1 [Example I-269]" system="F508delCFTR (Homo sapiens, UniProt P13569, DEL508-508)" result="100 to 200%"
molecule="COc1ccc(C(F)(F)F)cc1CN[C@H]1[C@H](C(C)(C)OC)[C@@H](C(=O)O)N(C(=O)C2CCCCC2)[C@H]1c1ccccc1OC [II-295]" system="F508delCFTR (Homo sapiens, UniProt P13569, DEL508-508)" result="100 to 200%"
molecule="COc1nc2ccccc2cc1CN[C@H]1[C@H](C(C)(C)C)[C@@H](C(=O)O)N(C(=O)OC(C)C)[C@H]1c1ccccc1C(C)C [Example I-250]" system="F508delCFTR (Homo sapiens, UniProt P13569, DEL508-508)" result="> 200%"
molecule="COc1ccc(C(C)(C)C)cc1CN[C@H]1[C@H](C(C)(C)C)[C@@H](C(=O)O)N(C(=O)[C@H]2C[C@H](CCC#N)C[C@H]2C)[C@H]1c1ccccc1 [II-173]" system="F508delCFTR (Homo sapiens, UniProt P13569, DEL508-508)" result="> 200%"

Could you now look at the following molecule, please?
-- ask Field request: Emax | item: COc1ccc(C(C)(C)C)cc1CN[C@H]1[C@H](C(C)(C)C)[C@@H](C(=O)O)N(C(=O)C2CCC(OC)CC2)[C@H]1c1ccccc1 (stereo partly drawn) [II-214]
-- reply > 200%

---

The following compounds are listed with their measured pEC50 values.
# SYSTEM: F508delCFTR (Homo sapiens, UniProt P13569, DEL508-508)
# Construct: expressed in transfected cells; host or cells: CFBE41o- human lung-derived epithelial cells (CFBE4lo-F508delCFTR-HRP), doxycycline-inducible
# EXPERIMENT DESCRIPTION: Cell Surface Expression-Horse Radish Peroxidase (CSE-HRP) Assay
# Format: cell-based
# PROTOCOL CONDITIONS: with co-corrector (2 μM of 3-[(2R,4R)-4-({[1-(2,2-difluoro-1,3-benzodioxol-5-yl)cyclopropyl]carbonyl}amino)-7-methoxy-3,4-dihydro-2H-chromen-2-yl]benzoic acid); read-out: EC50 (with co-corrector)
pEC50: −log10 of the molar value.

compound="COc1ccc(C(C)(C)C)cc1CN[C@H]1[C@H](C(C)(C)C)[C@@H](C(=O)O)N(C(=O)c2ccc(OC(F)(F)F)cc2)[C@H]1c1cccnc1N(C)C [II-467]" result="> 6.00"
compound="COc1ccc(C(C)(C)C)cc1CN[C@H]1[C@H](C(C)(C)C)[C@@H](C(=O)O)N(C(=O)c2cnn(C(C)(C)C)c2C#N)[C@H]1c1ccccc1 [II-355]" result="> 6.00"
compound="COc1nc(C(C)(C)C)ccc1CN[C@H]1[C@H](C(C)(C)C)[C@@H](C(=O)O)N(C(=O)C2Cc3ccccc3O2)[C@H]1c1ccccc1 (single isomer, unassigned) [Example I-181]" result="> 6.00"
compound="CC(C)(C)[C@@H]1[C@@H](Nc2cc(C(F)(F)F)cc[n+]2[O-])[C@@H](c2ccccc2)N(C(=O)C2CCCCC2)[C@H]1C(=O)O (racemic) [III-31]" result="5.00 to 6.00"

Could you now look at the following compound, please?
-- ask Write down the reported pEC50 of COc1ccc(C(C)(C)C)cc1CN[C@H]1[C@H](C(C)(C)C)[C@@H](C(=O)O)N(C(=O)C2CCc3ccccc3O2)[C@H]1c1cccnc1N(C)C (single isomer, unassigned) [Example 43] , test system: F508delCFTR (Homo sapiens, UniProt P13569, DEL508-508).
-- reply > 6.00

---

# SYSTEM: F508delCFTR (Homo sapiens, UniProt P13569, DEL508-508)
# Construct: expressed in transfected cells; host or cells: CFBE41o- human lung-derived epithelial cells (CFBE4lo-F508delCFTR-HRP), doxycycline-inducible
# EXPERIMENT DESCRIPTION: Cell Surface Expression-Horse Radish Peroxidase (CSE-HRP) Assay;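 as to Maximum % activity (without co-corrector): percent of the 2 µM on-plate positive control corrector response above DMSO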
# Type: cell-based
# PROTOCOL CONDITIONS: without co-corrector; maximum at any tested concentration, normalized to on-plate positive control; read-out: Maximum % activity (without co-corrector)
MEASUREMENT LABEL: Emax

# example entries with known answers
compound=COc1ccc(C(F)(F)F)cc1CN[C@H]1[C@H](C23CC(C2)C3)[C@@H](C(=O)O)N(C(=O)C2CCCCC2)[C@H]1c1ccccc1 system="F508delCFTR (Homo sapiens, UniProt P13569, DEL508-508)" measurement_label=Emax result="100 to 200%"
compound=COc1cc(C(F)(F)F)ccc1CN[C@H]1[C@H](C(C)(C)C)[C@@H](C(=O)O)N(C(=O)[C@@H]2CCCC(F)(F)C2)[C@H]1c1ccccc1 system="F508delCFTR (Homo sapiens, UniProt P13569, DEL508-508)" measurement_label=Emax result="> 200%"
compound=COc1ccc(-c2ccccc2C#N)cc1CN[C@H]1[C@H](C(C)(C)C)[C@@H](C(=O)O)N(C(=O)C2CCCCC2)[C@H]1c1ccccc1 system="F508delCFTR (Homo sapiens, UniProt P13569, DEL508-508)" measurement_label=Emax result="100 to 200%"

-- ask Field request: Emax | item: COc1ccc(C(C)C)cc1CN[C@H]1[C@H](C(C)(C)C)[C@@H](C(=O)O)N(C(=O)C2CCCCC2)[C@H]1c1ccc(F)cc1
-- reply > 200%

-- ask Moving on to the next compound: COc1nc(C(C)(C)C)ccc1CN[C@H]1[C@H](C(C)(C)C)[C@@H](C(=O)O)N(C(=O)C2CCCC(F)(F)C2)[C@H]1c1ccccc1 (stereo partly drawn) [Example I-180]
-- reply > 200%

-- ask Moving on to the next compound: COc1ncc(C2CCC2)cc1CN[C@H]1[C@H](C(C)(C)C)[C@@H](C(=O)O)N(C(=O)[C@@H]2CCCO2)[C@H]1c1ccccc1C1CC1
-- reply > 200%
